# System: 377384-186-R-J1-PDC complex spheroid viability;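 further: spheroids exposed to compounds for seven days before readout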
# experimentalDetails: Anticancer human tumor 377384-186-R-J1-PDC patient-derived pancreatic carcinoma cell line growth inhibition [RAS]
# recordedConditions: second compound 0.1 µM; first compound 0.0316 µM; active compounds read low
measurementName: viability, T/C (%)
The reply should contain only the number, in %.

## Input // lookup viability, T/C for CC(=O)OC12COC1CC(O)C1(C)C(=O)C(O)C3=C(C)C(OC(=O)C(O)C(NC(=O)OC(C)(C)C)c4ccccc4)CC(O)(C(OC(=O)c4ccccc4)C21)C3(C)C (stereo not drawn) + C#Cc1c(F)ccc2cc(O)cc(-c3ncc4c(N5CC6CCC(C5)N6)nc(OCC56CCCN5CC(F)C6)nc4c3F)c12
## Output 2.23

## Input Please give the measured viability, T/C for this compound: C=CC(=O)N1CCN(c2nc(OCC3CCCN3C)nc3c(F)c(-c4nc(N)cc(C)c4C(F)(F)F)c(Cl)cc23)C(C)C1 (stereo not drawn) + C#Cc1c(F)ccc2cc(O)cc(-c3ncc4c(N5CC6CCC(C5)N6)nc(OCC56CCCN5CC(F)C6)nc4c3F)c12
## Output 10.7

## Input GET /values?readout=viability, T/C&item= Cc1nc(N2CCC3(CC2)COC(C)C3N)c(CO)nc1Sc1ccnc(N)c1Cl (stereo not drawn) + C#Cc1c(F)ccc2cc(O)cc(-c3ncc4c(N5CC6CCC(C5)N6)nc(OCC56CCCN5CC(F)C6)nc4c3F)c12
## Output 5.2

## Input // returns reported viability, T/C for input Cc1nc(N2CCC3(CC2)COC(C)C3N)c(CO)nc1Sc1ccnc(N)c1Cl (stereo not drawn) + C=CC(=O)N1CCN(c2nc(OCC3CCCN3C)nc3c(F)c(-c4nc(N)cc(C)c4C(F)(F)F)c(Cl)cc23)C(C)C1
## Output 84.4

## Input Which measured viability, T/C value corresponds to CC(C)n1nc(-c2ccc3oc(N)nc3c2)c2c(N)ncnc21 + C#Cc1c(F)ccc2cc(O)cc(-c3ncc4c(N5CC6CCC(C5)N6)nc(OCC56CCCN5CC(F)C6)nc4c3F)c12 ?
## Output 4.39

## Input For the compound shown here, O=C(c1ccc(F)c(F)c1Nc1ccc(I)cc1F)N1CC(O)([C@@H]2CCCCN2)C1 + C=CC(=O)N1CCN(c2nc(OCC3CCCN3C)nc3c(F)c(-c4nc(N)cc(C)c4C(F)(F)F)c(Cl)cc23)C(C)C1 , give the reported viability, T/C.
## Output 62.3

## Input So what's the measured viability, T/C for this one? C=CC(=O)Nc1cc(Nc2nccc(-c3cn(C)c4ccccc34)n2)c(OC)cc1N(C)CCN(C)C + C=CC(=O)N1CCN(c2nc(OCC3CCCN3C)nc3c(F)c(-c4nc(N)cc(C)c4C(F)(F)F)c(Cl)cc23)C(C)C1
## Output 102

## Input I'd like to know its viability, T/C. The compound in question is CC(C)NCC(C(=O)N1CCN(c2ncnc3c2C(C)CC3O)CC1)c1ccc(Cl)cc1 (stereo not drawn) + C#Cc1c(F)ccc2cc(O)cc(-c3ncc4c(N5CC6CCC(C5)N6)nc(OCC56CCCN5CC(F)C6)nc4c3F)c12
## Output 10.2
